Listed below: IC50 (µg/mL), pseudovirus neutralization values for each entry.
# assayedSystem: HIV-1 IAVI-C22 Env (pseudovirus) (HIV-1 isolate IAVI-C22)
# experimentNotes: cell-based or functional assay

# binder, IC50 (µg/mL), pseudovirus neutralization
records = [
    ("1495_C14 (PGC14) (antibody, human IgG1, lambda, V domains shown) VH: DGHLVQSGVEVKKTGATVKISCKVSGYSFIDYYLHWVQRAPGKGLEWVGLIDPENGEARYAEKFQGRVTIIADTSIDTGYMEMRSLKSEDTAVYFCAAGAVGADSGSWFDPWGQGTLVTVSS VL: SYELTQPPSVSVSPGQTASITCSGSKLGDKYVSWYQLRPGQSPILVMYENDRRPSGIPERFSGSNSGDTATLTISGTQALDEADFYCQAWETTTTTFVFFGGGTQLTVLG", "> 50 µg/mL"),
    ("1443_C16 (PG16) (TCN-116) (antibody, V domains shown) VH: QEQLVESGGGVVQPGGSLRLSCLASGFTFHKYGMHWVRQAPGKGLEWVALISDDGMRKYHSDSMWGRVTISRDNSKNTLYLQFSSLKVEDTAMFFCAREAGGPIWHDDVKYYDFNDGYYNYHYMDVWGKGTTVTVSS VL: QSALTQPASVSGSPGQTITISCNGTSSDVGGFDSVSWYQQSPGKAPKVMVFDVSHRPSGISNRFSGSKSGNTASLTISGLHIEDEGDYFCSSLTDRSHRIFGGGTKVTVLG", "0.069 µg/mL"),
    ("1460_G14 (PGG14) (antibody, human IgG1, kappa, V domains shown) VH: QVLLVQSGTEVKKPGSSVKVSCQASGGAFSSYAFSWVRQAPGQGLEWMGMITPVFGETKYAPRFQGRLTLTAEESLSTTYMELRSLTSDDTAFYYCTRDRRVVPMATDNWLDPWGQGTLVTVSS VL: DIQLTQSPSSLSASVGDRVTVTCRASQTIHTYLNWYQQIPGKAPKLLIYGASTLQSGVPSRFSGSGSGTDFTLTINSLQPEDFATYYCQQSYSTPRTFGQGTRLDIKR", "> 50 µg/mL"),
    ("1456_P20 (PG20) (antibody, human IgG1, kappa, V domains shown) VH: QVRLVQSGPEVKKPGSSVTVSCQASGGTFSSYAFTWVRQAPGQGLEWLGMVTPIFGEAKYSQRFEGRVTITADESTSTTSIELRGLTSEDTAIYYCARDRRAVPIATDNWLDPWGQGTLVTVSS VL: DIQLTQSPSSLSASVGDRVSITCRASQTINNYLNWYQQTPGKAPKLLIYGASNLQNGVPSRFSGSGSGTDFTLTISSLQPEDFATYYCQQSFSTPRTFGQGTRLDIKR", "> 50 µg/mL"),
]
